Cited source: paper PMC4718804

# studySystem: NPC1 (Cricetulus griseus)
# Sequence (Q9JLG3 23-1277 limits assumed): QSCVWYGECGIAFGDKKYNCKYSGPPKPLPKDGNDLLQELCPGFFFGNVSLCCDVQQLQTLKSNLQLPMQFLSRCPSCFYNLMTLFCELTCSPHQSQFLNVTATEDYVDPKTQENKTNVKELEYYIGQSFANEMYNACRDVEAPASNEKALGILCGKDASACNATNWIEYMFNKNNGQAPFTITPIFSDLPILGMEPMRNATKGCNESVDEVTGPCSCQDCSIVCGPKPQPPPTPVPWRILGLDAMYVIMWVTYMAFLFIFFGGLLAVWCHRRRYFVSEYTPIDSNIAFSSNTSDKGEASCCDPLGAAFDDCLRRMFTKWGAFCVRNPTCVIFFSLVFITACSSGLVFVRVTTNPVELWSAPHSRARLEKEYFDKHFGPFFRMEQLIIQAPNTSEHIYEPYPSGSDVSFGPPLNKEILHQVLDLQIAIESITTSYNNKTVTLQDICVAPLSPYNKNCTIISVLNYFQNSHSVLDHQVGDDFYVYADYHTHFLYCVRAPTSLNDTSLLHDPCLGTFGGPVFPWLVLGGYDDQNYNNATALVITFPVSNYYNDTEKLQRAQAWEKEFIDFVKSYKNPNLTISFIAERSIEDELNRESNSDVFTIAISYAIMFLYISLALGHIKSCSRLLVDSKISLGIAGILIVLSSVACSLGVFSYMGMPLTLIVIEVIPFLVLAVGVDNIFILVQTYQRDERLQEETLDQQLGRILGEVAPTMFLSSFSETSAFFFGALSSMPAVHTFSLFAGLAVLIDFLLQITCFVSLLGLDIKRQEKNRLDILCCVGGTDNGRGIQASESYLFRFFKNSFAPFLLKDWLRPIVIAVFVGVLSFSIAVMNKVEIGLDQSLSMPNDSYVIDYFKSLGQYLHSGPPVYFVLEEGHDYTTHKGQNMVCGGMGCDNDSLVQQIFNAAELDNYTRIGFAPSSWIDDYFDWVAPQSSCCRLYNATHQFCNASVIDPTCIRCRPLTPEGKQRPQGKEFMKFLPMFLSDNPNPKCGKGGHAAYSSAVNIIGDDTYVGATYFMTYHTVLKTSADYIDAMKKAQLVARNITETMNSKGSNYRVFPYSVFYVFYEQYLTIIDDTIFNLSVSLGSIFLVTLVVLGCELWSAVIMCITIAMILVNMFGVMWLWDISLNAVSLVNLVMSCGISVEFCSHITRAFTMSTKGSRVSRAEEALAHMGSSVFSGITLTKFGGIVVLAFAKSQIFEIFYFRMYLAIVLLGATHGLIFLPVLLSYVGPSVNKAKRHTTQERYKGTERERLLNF
# Assay type: binding, hamster
quantity: competition of U-X crosslinking to NPC1, immunoprecipitation

{"columns": ["molecule", "result"],
 "data": [
  ["CCC(CC)CCOC1CCC2(C)C(=CCC3C4CCC(=O)C4(C)CCC32)C1 (stereo not drawn) [compound D]", "not inhibited"],
  ["CCCN(CCOC1CCC2(C)C(=CCC3C4CCC(=O)C4(C)CCC32)C1)Cc1cn(-c2cccnc2)nn1 (stereo not drawn) [compound B]", "blocked"],
  ["CCN(CC)CCOC1CCCCC1 [compound E]", "not inhibited"],
  ["CCCN(CCOC1CCC2(C)C(=CCC3C4CCC(=O)C4(C)CCC32)C1)Cc1cn(CCCCCCOC(=O)CCCCC2SCC3NC(=O)NC32)nn1 (stereo not drawn) [compound C]", "blocked"],
  ["CCN(CC)CCOC1CCC2(C)C(=CCC3C4CCC(=O)C4(C)CCC32)C1 (stereo not drawn) [U18666A, reference compound]", "blocked"]
]}

Next up:
Summary for this molecule, CCC(CC)CCOC1CCC2(C)C(=CCC3C2CCC2(C)C3CCC2N(C)C)C1 (stereo not drawn) [compound A] : competition of U-X crosslinking to NPC1, immunoprecipitation is not inhibited

* * *

# procedureDetails: physchem
Entries and their pKa
Lab note: write the figure by itself, no unit.

{"columns": ["molecule", "numericValue"],
 "data": [
  ["CCN(CC)CCOC1CCC2(C)C(=CCC3C4CCC(=O)C4(C)CCC32)C1 (centres unmarked) [U18666A, reference compound]", 9.41]
]}

Kindly consider the entry below.
Memo: CCC(CC)CCOC1CCC2(C)C(=CCC3C2CCC2(C)C3CCC2N(C)C)C1 (centres unmarked) , reported pKa: 10.2
